Reference source: PubChem BioAssay (NCI)

The following compounds are shown together with reported growth values.
# Tested on: BT-549 breast
# Experimental Protocol: NCI-60 one-dose screen, 48 h (100 = growth as untreated, 0 = no growth, -100 = all killed)
# Assay Context: 10 µM unless noted
Compounds without any hit were thinned out: in the full panel of roughly 83,000, 20% have a hit.
Quick reminder: number only, in %, skip the unit.

Below: 8 compounds and their reported growth.
CN(C)c1ccnc(CNCCSC2(c3ccc(C(F)(F)F)cc3)c3ccccc3CCc3ccccc32)c1 :: -15.2
N#Cc1ccc(C(=O)Nn2c(N)cc3ccccc3c2=O)cc1 :: 85.4
CN(C)c1ccnc(NCCCSC(c2ccccc2)(c2ccccc2)c2ccccc2)c1 :: 48.9
Clc1ccc(-c2ccc(OCCCN3CCN(c4ccncc4)CC3)cc2)cc1 :: 75.4
COc1ccc(NC(=O)c2sc3nc(C(C)C)ccc3c2N)cc1 :: 88.5
CC(C)Sc1nc(NCCc2c[nH]c3ccccc23)c(C#N)c(-c2ccc(F)cc2)n1 :: 65
COc1ccc2[nH]cc(-c3nc(N)nnc3-c3cn(C)c4ncccc34)c2c1 :: 36.5
COc1ccc(-c2cc(C(=O)NCc3ccccc3)nn2-c2ccc(S(C)(=O)=O)cc2)cc1OC :: 104

Prompt: # query: growth of entry Cc1ccc2c(N)c(C(=O)Nc3ccc(-c4ccccc4)cc3)sc2n1
Completion: 53.2

Prompt: Can you handle C#CCOc1ccc(/C=N/Nc2nc(-c3ccc(F)cc3)cs2)cc1OC next?
Completion: 24.5

Prompt: Can you handle CCCCCCn1c(O)c(N=Nc2nc(-c3cc4ccccc4oc3=O)cs2)c2ccccc21 next?
Completion: -20.5

Prompt: Can you handle Nc1cc2ccccc2c(=O)n1NC(=O)c1ccc(I)cc1 next?
Completion: 108

Prompt: Can you handle COc1ccc(/C=C2\C(=N)N=C(SCc3nc4ccccc4[nH]3)NC2=O)cc1 next?
Completion: 106

Prompt: Can you handle CCOC(=O)C1=C(N)N(c2ccccc2)C2=C(C(=O)CC(C)(C)C2)C1c1ccc([N+](=O)[O-])cc1 (centres undefined) next?
Completion: 102

Prompt: Can you handle CCCCOc1ccc(NC(=O)c2sc3nc(C)ccc3c2N)cc1 next?
Completion: -11.6

Prompt: Can you handle C#CCOc1cc(N(CC)CC)ccc1C(C(=O)NC(C)(C)C)N(C(=O)C1CCc2cc(F)ccc2O1)c1ccccc1Br (centres undefined) next?
Completion: 63.7

Prompt: Can you handle COc1ccc(C(SCCNCc2cc(N(C)C)ccn2)(c2ccccc2)c2ccccc2)cc1 next?
Completion: -13.4

Prompt: Can you handle C=C1CCC2C3(C)COC(c4ccc(F)cc4)OC3CCC2(C)C1CC(O)C1=CCOC1=O (centres undefined) next?
Completion: -31.9

Prompt: Can you handle C=C1CC[C@@H]2[C@]3(C)COC(c4cn[nH]c4-c4ccccc4)O[C@@H]3CC[C@@]2(C)[C@@H]1C/C=C1/C(=O)OCC1O (some centres undefined) next?
Completion: 52.2
